What inhibition at 1 µM was measured for each of the following?
- test-system: panel of 255 wild-type kinases (Homo sapiens, UniProt Q9H422)
- Sequence (Q9H422 whole entry): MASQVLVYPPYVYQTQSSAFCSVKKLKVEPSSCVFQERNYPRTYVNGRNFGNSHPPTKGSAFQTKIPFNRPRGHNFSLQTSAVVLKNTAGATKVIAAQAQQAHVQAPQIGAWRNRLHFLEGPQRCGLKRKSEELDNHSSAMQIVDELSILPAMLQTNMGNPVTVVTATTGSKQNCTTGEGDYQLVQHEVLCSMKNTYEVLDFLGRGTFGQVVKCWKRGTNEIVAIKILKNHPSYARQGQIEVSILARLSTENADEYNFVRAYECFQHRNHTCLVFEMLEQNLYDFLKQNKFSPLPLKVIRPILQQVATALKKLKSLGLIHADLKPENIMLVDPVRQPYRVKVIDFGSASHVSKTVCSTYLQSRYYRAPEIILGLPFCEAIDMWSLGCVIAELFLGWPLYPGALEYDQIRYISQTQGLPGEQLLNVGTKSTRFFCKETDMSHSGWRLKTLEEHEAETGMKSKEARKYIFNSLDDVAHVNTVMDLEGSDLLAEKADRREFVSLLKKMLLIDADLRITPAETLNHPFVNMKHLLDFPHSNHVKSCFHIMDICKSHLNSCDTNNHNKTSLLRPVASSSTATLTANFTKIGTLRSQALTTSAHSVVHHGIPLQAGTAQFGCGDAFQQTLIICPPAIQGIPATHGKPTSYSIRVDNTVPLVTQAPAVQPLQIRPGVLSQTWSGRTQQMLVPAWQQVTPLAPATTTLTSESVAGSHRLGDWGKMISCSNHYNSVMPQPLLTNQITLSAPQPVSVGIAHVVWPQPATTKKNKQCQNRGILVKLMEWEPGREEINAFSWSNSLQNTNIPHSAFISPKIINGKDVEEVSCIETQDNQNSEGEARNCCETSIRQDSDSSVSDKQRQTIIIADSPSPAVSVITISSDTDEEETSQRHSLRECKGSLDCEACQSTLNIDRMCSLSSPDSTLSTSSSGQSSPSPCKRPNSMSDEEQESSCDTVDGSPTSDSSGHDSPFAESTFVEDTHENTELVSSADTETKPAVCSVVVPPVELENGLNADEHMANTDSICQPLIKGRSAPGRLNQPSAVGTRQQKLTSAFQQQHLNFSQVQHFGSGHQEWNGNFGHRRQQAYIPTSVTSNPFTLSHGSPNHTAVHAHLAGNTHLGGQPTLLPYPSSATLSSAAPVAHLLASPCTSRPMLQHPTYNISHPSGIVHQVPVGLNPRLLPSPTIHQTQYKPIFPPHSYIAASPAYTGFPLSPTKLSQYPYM
- test-protocol: Kinase panel profiling at 1 µmol/L (MSA or IMAP), percentage inhibition
- Assay type: biochemical
- experimental-parameters: kinase HIPK3; 1 µmol/L single concentration; read-out: %-inhibition at 1 µmol/L, HIPK3

# input Any idea what inhibition at 1 µM was measured for CCn1c(=O)c(-c2cc(NC(=O)Nc3ccccc3)c(F)cc2Br)cc2cnc(NC)cc21 [ripretinib] ?
# output 4%

# input Any idea what inhibition at 1 µM was measured for C[C@H]1Oc2cc(cnc2N)-c2c(nn(C)c2C#N)CN(C)C(=O)c2ccc(F)cc21 [lorlatinib] ?
# output 0.506%

# input Any idea what inhibition at 1 µM was measured for CCN1CCN(c2ccc(Nc3cc(N(C)C(=O)Nc4c(Cl)c(OC)cc(OC)c4Cl)ncn3)cc2)CC1 [infigratinib] ?
# output -3.71%

# input Any idea what inhibition at 1 µM was measured for O=C(Nc1cnn2ccc(N3CCC[C@@H]3c3cc(F)ccc3F)nc12)N1CC[C@H](O)C1 [larotrectinib] ?
# output -4%

# input Any idea what inhibition at 1 µM was measured for COc1cc2ncnc(Nc3ccc(F)c(Cl)c3)c2cc1NC(=O)/C=C/CN1CCCCC1 [dacomitinib] ?
# output 3.75%

# input Any idea what inhibition at 1 µM was measured for CO[C@]1(C(=O)N[C@@H](C)c2ccc(-n3cc(F)cn3)nc2)CC[C@H](c2nc(C)cc(Nc3cc(C)[nH]n3)n2)CC1 [pralsetinib] ?
# output 9%

# input Any idea what inhibition at 1 µM was measured for FC(F)(F)c1ccc(CNc2ccc(Cc3c[nH]c4ncc(Cl)cc34)cn2)cn1 [pexidartinib] ?
# output 3.52%

# input Any idea what inhibition at 1 µM was measured for Cn1cnc2c(F)c(Nc3ccc(Br)cc3F)c(C(=O)NOCCO)cc21 [binimetinib] ?
# output 0.0241%

###

- test-system: panel of 255 wild-type kinases (Homo sapiens)
- test-protocol: Kinase panel profiling at 1 µmol/L (MSA or IMAP), percentage inhibition
- Type: biochemical
- experimental-parameters: kinase PDGFRβ; 1 µmol/L single concentration; read-out: %-inhibition at 1 µmol/L, PDGFRβ
reported-property: inhibition at 1 µM (%)
Response body: numeric value in %, unit text excluded.

# input Any idea what inhibition at 1 µM was measured for Cn1cc(-c2cc3c(N4CCN(c5ncc([C@@](C)(N)c6ccc(F)cc6)cn5)CC4)ncnn3c2)cn1 ?
# output 95

# input Any idea what inhibition at 1 µM was measured for Cc1cc(Nc2ncnc3ccc(NC4=NC(C)(C)CO4)cc23)ccc1Oc1ccn2ncnc2c1 ?
# output 31

# input Any idea what inhibition at 1 µM was measured for CO[C@]1(C(=O)N[C@@H](C)c2ccc(-n3cc(F)cn3)nc2)CC[C@H](c2nc(C)cc(Nc3cc(C)[nH]n3)n2)CC1 ?
# output 99

# input Any idea what inhibition at 1 µM was measured for C[C@H]1Oc2cc(cnc2N)-c2c(nn(C)c2C#N)CN(C)C(=O)c2ccc(F)cc21 ?
# output 2.32

###

- test-system: panel of 255 wild-type kinases (Homo sapiens, UniProt Q13627)
- test-protocol: Kinase panel profiling at 1 µmol/L (MSA or IMAP), percentage inhibition
- Format: biochemical
- experimental-parameters: kinase DYRK1A; 1 µmol/L single concentration; read-out: %-inhibition at 1 µmol/L, DYRK1A
What inhibition at 1 µM was measured for each of the following?
Response body: numeric value in %, unit text excluded.

# input Any idea what inhibition at 1 µM was measured for O=C(Nc1cnn2ccc(N3CCC[C@@H]3c3cc(F)ccc3F)nc12)N1CC[C@H](O)C1 ?
# output -4.7

# input Any idea what inhibition at 1 µM was measured for COC(=O)N[C@@H](C)CNc1nccc(-c2cn(C(C)C)nc2-c2cc(Cl)cc(NS(C)(=O)=O)c2F)n1 ?
# output 6

# input Any idea what inhibition at 1 µM was measured for CCN1CCN(c2ccc(Nc3cc(N(C)C(=O)Nc4c(Cl)c(OC)cc(OC)c4Cl)ncn3)cc2)CC1 ?
# output -4

# input Any idea what inhibition at 1 µM was measured for C=CC(=O)N1CCC([C@@H]2CCNc3c(C(N)=O)c(-c4ccc(Oc5ccccc5)cc4)nn32)CC1 ?
# output -4.37

# input Any idea what inhibition at 1 µM was measured for Cn1cnc2c(F)c(Nc3ccc(Br)cc3Cl)c(C(=O)NOCCO)cc21 ?
# output -3.48

# input Any idea what inhibition at 1 µM was measured for Cn1cc(-c2cc3c(N4CCN(c5ncc([C@@](C)(N)c6ccc(F)cc6)cn5)CC4)ncnn3c2)cn1 ?
# output 57

# input Any idea what inhibition at 1 µM was measured for Cc1cc(Nc2ncnc3ccc(NC4=NC(C)(C)CO4)cc23)ccc1Oc1ccn2ncnc2c1 ?
# output -3.25

# input Any idea what inhibition at 1 µM was measured for Cc1nc(NC(=O)N2CCC[C@H]2C(N)=O)sc1-c1ccnc(C(C)(C)C(F)(F)F)c1 ?
# output 6

# input Any idea what inhibition at 1 µM was measured for C[C@H](Nc1ncnc2nc[nH]c12)c1cc2cccc(Cl)c2c(=O)n1-c1ccccc1 ?
# output -3.48

# input Any idea what inhibition at 1 µM was measured for COc1ccc(CN2C3CC2CN(c2ccc(-c4cc(OCC(C)(C)O)cn5ncc(C#N)c45)cn2)C3)cn1 ?
# output 6

# input Any idea what inhibition at 1 µM was measured for CCn1c(=O)c(-c2cc(NC(=O)Nc3ccccc3)c(F)cc2Br)cc2cnc(NC)cc21 ?
# output 1.4

# input Any idea what inhibition at 1 µM was measured for CCc1nc(C(N)=O)c(Nc2ccc(N3CCC(N4CCN(C)CC4)CC3)c(OC)c2)nc1NC1CCOCC1 ?
# output 18

# input Any idea what inhibition at 1 µM was measured for CN1CCN(c2ccc(C(=O)Nc3n[nH]c4ccc(Cc5cc(F)cc(F)c5)cc34)c(NC3CCOCC3)c2)CC1 ?
# output -3.18

# input Any idea what inhibition at 1 µM was measured for CCN1C(=O)N(c2c(F)c(OC)cc(OC)c2F)Cc2cnc3[nH]c(CN4CCOCC4)cc3c21 ?
# output -2.67

# input Any idea what inhibition at 1 µM was measured for CO[C@]1(C(=O)N[C@@H](C)c2ccc(-n3cc(F)cn3)nc2)CC[C@H](c2nc(C)cc(Nc3cc(C)[nH]n3)n2)CC1 ?
# output -3

###

- test-system: panel of 255 wild-type kinases (Homo sapiens)
- test-protocol: Kinase panel profiling at 1 µmol/L (MSA or IMAP), percentage inhibition
- Assay type: biochemical
- experimental-parameters: kinase PLK2; 1 µmol/L single concentration; read-out: %-inhibition at 1 µmol/L, PLK2
What inhibition at 1 µM was measured for each of the following?
Please answer in the form of a number followed by its unit of measurement.

# input Any idea what inhibition at 1 µM was measured for CO[C@]1(C(=O)N[C@@H](C)c2ccc(-n3cc(F)cn3)nc2)CC[C@H](c2nc(C)cc(Nc3cc(C)[nH]n3)n2)CC1 [pralsetinib] ?
# output 6.54%

# input Any idea what inhibition at 1 µM was measured for Cc1cc(Nc2ncnc3ccc(NC4=NC(C)(C)CO4)cc23)ccc1Oc1ccn2ncnc2c1 [tucatinib] ?
# output 7%

# input Any idea what inhibition at 1 µM was measured for Cn1cnc2c(F)c(Nc3ccc(Br)cc3F)c(C(=O)NOCCO)cc21 [binimetinib] ?
# output -5%

# input Any idea what inhibition at 1 µM was measured for COc1ccc(CN2C3CC2CN(c2ccc(-c4cc(OCC(C)(C)O)cn5ncc(C#N)c45)cn2)C3)cn1 [selpercatinib] ?
# output 4%

# input Any idea what inhibition at 1 µM was measured for COC(=O)N[C@@H](C)CNc1nccc(-c2cn(C(C)C)nc2-c2cc(Cl)cc(NS(C)(=O)=O)c2F)n1 [encorafenib] ?
# output -2.68%

# input Any idea what inhibition at 1 µM was measured for CCn1c(=O)c(-c2cc(NC(=O)Nc3ccccc3)c(F)cc2Br)cc2cnc(NC)cc21 [ripretinib] ?
# output 6%

# input Any idea what inhibition at 1 µM was measured for C=CC(=O)N1CCC([C@@H]2CCNc3c(C(N)=O)c(-c4ccc(Oc5ccccc5)cc4)nn32)CC1 [zanubrutinib] ?
# output 0.329%

###

- Test system: 134 cancer cell lines
- test-protocol: Cell viability assay (ATPlite, 72 hours), IC50 on cancer cell line panel
- experimental-parameters: Homo sapiens, MCF7, read-out: IC50 in cell proliferation assay, MCF-7 cell line
What IC50 was measured for each of the following?
Response body: numeric value in µM, unit text excluded.

# input Any idea what IC50 was measured for CCc1nc(C(N)=O)c(Nc2ccc(N3CCC(N4CCN(C)CC4)CC3)c(OC)c2)nc1NC1CCOCC1 ?
# output 0.514

# input Any idea what IC50 was measured for CN1CCN(c2ccc(C(=O)Nc3n[nH]c4ccc(Cc5cc(F)cc(F)c5)cc34)c(NC3CCOCC3)c2)CC1 ?
# output 3.83
